testDetails: amyloid nucleation score (Sup35N fusion, yeast selection) (log enrichment); library NNK2; higher = more nucleation; inactive = no reads after selection;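 note: zero at mode of non-aggregating sequences after 7 days selection at 30°C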
Assign classes using reported amyloid nucleation score values and the ranges bucket 1 (below 0.1), bucket 2 (0.1 to below 0.8), bucket 3 (0.8 or more), please.

Use the examples below as a reference point.
| substance | labelValue |
| --- | --- |
| SCLYSSRPSMLGTIYRRMRC | bucket 2 |
| FPENDWL | bucket 1 |
| HSLLSLLVVFYLQDRSRVIC | bucket 3 |
| CCGGVRMMEELRCSTWSRVV | bucket 3 |
| TFGLHIHKPRMPPHGPWFSL | bucket 1 |

QUERY: Assign a bin to RPHTLGHRCSCQSNFFLLPL
RESULT: bucket 1

QUERY: Assign a bin to YNYVPLDFVRPVSDWSLELR
RESULT: bucket 1

QUERY: Assign a bin to GLHLHSVAEYVCWGTPLSRL
RESULT: bucket 2

QUERY: Assign a bin to RVTNLIHQLRVPKIGKSGFA
RESULT: bucket 2

----------
testDetails: amyloid nucleation score (Sup35N fusion, yeast selection) (log enrichment); library NNK3; higher = more nucleation; inactive = no reads after selection
quantity: amyloid nucleation score

Below, each entry is followed by its recorded amyloid nucleation score result.
| substance | amyloid nucleation score |
| --- | --- |
| YIRVVNAPVCTGNCLQDAYL | inactive |
| LYWEPKLTSDFKRLDLRLVP | inactive |
| TLIFFDKDYYCGVRQMWNVG | inactive |
| KEGNGMSFYN | inactive |
| DMACMVFGWE | inactive |
| TLLYTI | inactive |

QUERY: Quick one: amyloid nucleation score of FFFFTLKTSVQADLHDMLSQ ?
RESULT: 0.792

QUERY: Quick one: amyloid nucleation score of HKRLMFDMYHPIWMFYCSAC ?
RESULT: inactive

QUERY: Quick one: amyloid nucleation score of VPWSLCDD ?
RESULT: 0.508

QUERY: Quick one: amyloid nucleation score of SARYDFSYEYGRIKYRELDR ?
RESULT: 1.1

QUERY: Quick one: amyloid nucleation score of TFVVGRVITWKNQVCL ?
RESULT: inactive

QUERY: Quick one: amyloid nucleation score of YGMGSGTTMVCPKVAWG ?
RESULT: inactive

QUERY: Quick one: amyloid nucleation score of YIEYIWWRLSSWLRSMKGLR ?
RESULT: inactive

----------
testDetails: amyloid nucleation score (Sup35N fusion, yeast selection) (log enrichment); library NNK3; higher = more nucleation; inactive = no reads after selection
quantity: amyloid nucleation score

Below, each entry is followed by its recorded amyloid nucleation score result.
| substance | result |
| --- | --- |
| KVFPFEVEVLFFHGGDMSCG | -0.121 |
| FNRKCVSVCRVRGGICWRSQ | inactive |
| HSLIVYHLS | inactive |
| DVMRGIKYVRRVNAQLTGSS | inactive |
| DFSMSVNSA | inactive |
| ATFIFSDRQSHIHLYSNTQY | inactive |

QUERY: Quick one: amyloid nucleation score of ISTLGYFAELVI ?
RESULT: inactive

QUERY: Quick one: amyloid nucleation score of WAGESLS ?
RESULT: inactive

QUERY: Quick one: amyloid nucleation score of IYNPRSNINQFPDTFEPDQM ?
RESULT: inactive

QUERY: Quick one: amyloid nucleation score of GRSSCLSTFC ?
RESULT: inactive

QUERY: Quick one: amyloid nucleation score of RPSSLIYFSSPNTRHGSPTL ?
RESULT: inactive

QUERY: Quick one: amyloid nucleation score of APRFRFQTVHRSFVRSRKLR ?
RESULT: inactive

QUERY: Quick one: amyloid nucleation score of HGFERSRSGNRSGLIDDLGC ?
RESULT: inactive

QUERY: Quick one: amyloid nucleation score of IPSTMRDDFAYTNCPNNSFL ?
RESULT: inactive
